# Tested on: K562
# assay: Cell cycle arrest in human K562 cells assessed as total cell levels at M4 phase at IC50 after 72 hrs by propidium iodide staining based flow cytometry (reference value: 0.50%)
# Type: functional
Entries whose Activity is below 3% take met; entries at or above 3% take not met.

Worked examples, 8 compounds total:
smiles-text | label-class
O=C1C=C[C@]2(C[C@H](OC(=O)/C=C/c3ccc(F)cc3)[C@@H](c3ccccc3)O2)O1 | met
O=C1C=C[C@@]2(C[C@H](OC(=O)/C=C/c3ccccc3)[C@H](c3ccccc3)O2)O1 | not met
O=C1C=C[C@@]2(C[C@H](OC(=O)/C=C/c3ccc([N+](=O)[O-])cc3)[C@@H](c3ccccc3)O2)O1 | met
O=C1C=C[C@]2(C[C@H](O)[C@@H](c3ccccc3)O2)O1 | met
O=C1C=C[C@@]2(C[C@H](OC(=O)/C=C/c3ccccc3)[C@@H](c3ccccc3)O2)O1 | not met
O=C1C=C[C@@]2(C[C@H](OC(=O)/C=C/c3ccc(F)cc3)[C@H](c3ccccc3)O2)O1 | not met
O=C1C=C[C@]2(C[C@H](OC(=O)/C=C/c3ccccc3)[C@H](c3ccccc3)O2)O1 | not met
COc1ccc(/C=C/C(=O)O[C@H]2C[C@]3(C=CC(=O)O3)O[C@@H]2c2ccccc2)cc1 | met

Query :: For O=C1C=C[C@]2(C[C@H](OC(=O)/C=C/c3ccc([N+](=O)[O-])cc3)[C@H](c3ccccc3)O2)O1 , is the recorded Activity below the cut-off of 3%?
Result :: not met

Query :: For O=C1C=C[C@]2(C[C@H](O)[C@H](c3ccccc3)O2)O1 , is the recorded Activity below the cut-off of 3%?
Result :: met

Query :: For O=C1C=C[C@]2(C[C@H](OC(=O)/C=C/c3ccc([N+](=O)[O-])cc3)[C@@H](c3ccccc3)O2)O1 , is the recorded Activity below the cut-off of 3%?
Result :: met

* * *

# pIC50 per record follows
# System: Raji
# assay: Cytotoxicity against human Raji cells assessed as reduction in cell viability after 72 hrs by MTT assay
# Type: functional, cell-based
// field semantics: pIC50 = negative decimal log of concentration (mol/L)

smiles-text | metric | quantitative-result
COc1ccc(/C=C/C(=O)O[C@H]2C[C@@]3(C=CC(=O)O3)O[C@@H]2c2ccccc2)cc1 | pIC50 | 4.00

Query :: Annotate the compound O=C1C=C[C@]2(C[C@H](OC(=O)/C=C/c3ccccc3)[C@H](c3ccccc3)O2)O1 with its measured pIC50.
Result :: 5.01

Query :: Annotate the compound COc1ccc(/C=C/C(=O)O[C@H]2C[C@@]3(C=CC(=O)O3)O[C@H]2c2ccccc2)cc1 with its measured pIC50.
Result :: 5.52

Query :: Annotate the compound O=C1C=C[C@]2(C[C@H](OC(=O)/C=C/c3ccc(F)cc3)[C@H](c3ccccc3)O2)O1 with its measured pIC50.
Result :: 4.76

Query :: Annotate the compound COc1ccc(/C=C/C(=O)O[C@H]2C[C@]3(C=CC(=O)O3)O[C@@H]2c2ccccc2)cc1 with its measured pIC50.
Result :: 4.05

Query :: Annotate the compound O=C1C=C[C@]2(C[C@H](OC(=O)/C=C/c3ccccc3)[C@@H](c3ccccc3)O2)O1 with its measured pIC50.
Result :: 5.18

Query :: Annotate the compound O=C1C=C[C@@]2(C[C@H](OC(=O)/C=C/c3ccc([N+](=O)[O-])cc3)[C@H](c3ccccc3)O2)O1 with its measured pIC50.
Result :: 5.79

* * *

# Test system: K562
# assay: Cell cycle arrest in human K562 cells assessed as accumulation at G0/G1 phase at IC50 after 72 hrs by propidium iodide staining based flow cytometry (reference value: 38.48%)
# Assay type: functional
metric: Activity
Give the figure together with its unit, number first.

Example entries and their recorded answers appear below.
smiles-text | target-system | result
O=C1C=C[C@]2(C[C@H](O)[C@H](c3ccccc3)O2)O1 | K562 | 15.18%
O=C1C=C[C@]2(C[C@H](OC(=O)/C=C/c3ccc(F)cc3)[C@@H](c3ccccc3)O2)O1 | K562 | 40.27%
O=C1C=C[C@@]2(C[C@H](OC(=O)/C=C/c3ccccc3)[C@@H](c3ccccc3)O2)O1 | K562 | 23.1%
O=C1C=C[C@]2(C[C@H](O)[C@@H](c3ccccc3)O2)O1 | K562 | 32.52%
O=C1C=C[C@]2(C[C@H](OC(=O)/C=C/c3ccc([N+](=O)[O-])cc3)[C@H](c3ccccc3)O2)O1 | K562 | 30.42%

Query :: Annotate the compound COc1ccc(/C=C/C(=O)O[C@H]2C[C@]3(C=CC(=O)O3)O[C@H]2c2ccccc2)cc1 with its measured Activity.
Result :: 41.6%

Query :: Annotate the compound O=C1C=C[C@@]2(C[C@H](O)[C@@H](c3ccccc3)O2)O1 with its measured Activity.
Result :: 39.26%

Query :: Annotate the compound O=C1C=C[C@]2(C[C@H](OC(=O)/C=C/c3ccccc3)[C@@H](c3ccccc3)O2)O1 with its measured Activity.
Result :: 16.04%

Query :: Annotate the compound O=C1C=C[C@@]2(C[C@H](OC(=O)/C=C/c3ccc(F)cc3)[C@@H](c3ccccc3)O2)O1 with its measured Activity.
Result :: 41.18%

* * *

# pIC50 per record follows
# System: Jurkat
# assay: Cytotoxicity against human Jurkat cells assessed as reduction in cell viability after 72 hrs by MTT assay
# Assay type: functional, cell-based
// field semantics: pIC50 = negative decimal log of concentration (mol/L)

Example entries and their recorded answers appear below.
smiles-text | pIC50
O=C1C=C[C@@]2(C[C@H](OC(=O)/C=C/c3ccccc3)[C@H](c3ccccc3)O2)O1 | 5.99
O=C1C=C[C@]2(C[C@H](OC(=O)/C=C/c3ccc(F)cc3)[C@H](c3ccccc3)O2)O1 | 4.81
O=C1C=C[C@@]2(C[C@H](OC(=O)/C=C/c3ccc(F)cc3)[C@H](c3ccccc3)O2)O1 | 5.33
O=C1C=C[C@@]2(C[C@H](O)[C@@H](c3ccccc3)O2)O1 | 6.47
O=C1C=C[C@]2(C[C@H](OC(=O)/C=C/c3ccc(F)cc3)[C@@H](c3ccccc3)O2)O1 | 4.81

Query :: Annotate the compound O=C1C=C[C@@]2(C[C@H](OC(=O)/C=C/c3ccc([N+](=O)[O-])cc3)[C@H](c3ccccc3)O2)O1 with its measured pIC50.
Result :: 5.39

Query :: Annotate the compound COc1ccc(/C=C/C(=O)O[C@H]2C[C@@]3(C=CC(=O)O3)O[C@@H]2c2ccccc2)cc1 with its measured pIC50.
Result :: 4.67

Query :: Annotate the compound O=C1C=C[C@]2(C[C@H](O)[C@H](c3ccccc3)O2)O1 with its measured pIC50.
Result :: 6.00

Query :: Annotate the compound O=C1C=C[C@@]2(C[C@H](O)[C@H](c3ccccc3)O2)O1 with its measured pIC50.
Result :: 6.02

* * *

# Tested on: MDA-MB-231
# assay: Cytotoxicity against human MDA-MB-231 cells assessed as reduction in cell viability after 72 hrs by MTT assay
# Assay type: functional, cell-based
# cond: MDA-MB-231, 72 h
metric: pIC50
// field semantics: pIC50 = negative decimal log of concentration (mol/L)

Example entries and their recorded answers appear below.
smiles-text | quantitative-result
COc1ccc(/C=C/C(=O)O[C@H]2C[C@]3(C=CC(=O)O3)O[C@H]2c2ccccc2)cc1 | 5.58
O=C1C=C[C@@]2(C[C@H](OC(=O)/C=C/c3ccc([N+](=O)[O-])cc3)[C@H](c3ccccc3)O2)O1 | 5.90

Query :: Annotate the molecule O=C1C=C[C@@]2(C[C@H](OC(=O)/C=C/c3ccccc3)[C@H](c3ccccc3)O2)O1 with its measured pIC50.
Result :: 5.44

Query :: Annotate the molecule O=C1C=C[C@]2(C[C@H](OC(=O)/C=C/c3ccccc3)[C@H](c3ccccc3)O2)O1 with its measured pIC50.
Result :: 5.28

Query :: Annotate the molecule O=C1C=C[C@]2(C[C@H](OC(=O)/C=C/c3ccccc3)[C@@H](c3ccccc3)O2)O1 with its measured pIC50.
Result :: 5.26

* * *

# Test system: HeLa
# assay: Cytotoxicity against human HeLa cells assessed as reduction in cell viability after 72 hrs by MTT assay
# Assay type: functional, cell-based
Entries whose IC50 is below 6 µM take True; entries at or above 6 µM take False.

Query :: For O=C1C=C[C@@]2(C[C@H](OC(=O)/C=C/c3ccc(F)cc3)[C@H](c3ccccc3)O2)O1 , is the recorded IC50 below the cut-off of 6 µM?
Result :: False

Query :: For O=C1C=C[C@@]2(C[C@H](OC(=O)/C=C/c3ccccc3)[C@H](c3ccccc3)O2)O1 , is the recorded IC50 below the cut-off of 6 µM?
Result :: False

* * *

# Test system: K562
# assay: Cytotoxicity against human K562 cells assessed as reduction in cell viability after 72 hrs by MTT assay
# Format: functional, cell-based
# cond: K562, 72 h
pIC50: −log10 of the molar value.
Label rule, in plain words: pIC50 of 5 and up is Satisfied, under 5 is Not satisfied.

Worked examples, 4 compounds total:
smiles-text | target-system | label-class
O=C1C=C[C@@]2(C[C@H](OC(=O)/C=C/c3ccc(F)cc3)[C@H](c3ccccc3)O2)O1 | K562 | Satisfied
O=C1C=C[C@]2(C[C@H](OC(=O)/C=C/c3ccc([N+](=O)[O-])cc3)[C@H](c3ccccc3)O2)O1 | K562 | Not satisfied
O=C1C=C[C@@]2(C[C@H](OC(=O)/C=C/c3ccc([N+](=O)[O-])cc3)[C@H](c3ccccc3)O2)O1 | K562 | Satisfied
O=C1C=C[C@]2(C[C@H](O)[C@H](c3ccccc3)O2)O1 | K562 | Satisfied

Query :: Please tell me: is the compound O=C1C=C[C@]2(C[C@H](OC(=O)/C=C/c3ccccc3)[C@@H](c3ccccc3)O2)O1 at or over 5 in terms of pIC50?
Result :: Not satisfied

Query :: Please tell me: is the compound COc1ccc(/C=C/C(=O)O[C@H]2C[C@]3(C=CC(=O)O3)O[C@@H]2c2ccccc2)cc1 at or over 5 in terms of pIC50?
Result :: Satisfied
